Tested on: rodent lifetime carcinogenesis bioassay, tumor incidence TD50
Test: carcinogenic potency in animals, long-term in vivo studies, CPDB compilation (AID 1745844)
Details: rat; strain Fischer 344; males; in drinking water; site: liver; lesion: hepatoma; dosed 118 weeks; study length 128 weeks
metric: TD50
Please don't drop the unit; write it after the number.

Q: # input molecule: CN(CCCC(=O)c1cccnc1)N=O ; wanted: its TD50
A: 2.74 mg/kg/day

----------
Tested on: rodent lifetime carcinogenesis bioassay, tumor incidence TD50
Assay: carcinogenic potency in animals, long-term in vivo studies, CPDB compilation (AID 1745844)
Settings: rat; strain Fischer 344; females; in drinking water; site: mammary gland; lesion: adenoma + fibroadenoma; dosed 91 weeks; study length 93 weeks
metric: TD50 (mg/kg/day)
The response must be a number in mg/kg/day with no trailing unit.

Q: # input compound: COc1cc(-c2ccc(N)c(OC)c2)ccc1N ; wanted: its TD50
A: 6.22

Reference source for all entries: PubChem BioAssay AID1745844
